Test system: platelet aggregation (rabbit platelet rich plasma)
Assay: Preventive effect on platelet aggregation in vitro (aggregometer; rabbit platelet rich plasma; ADP or collagen induced)
Type: cell-based, rabbits
Settings: Oryctolagus cuniculus, Platelet; ADP at final concentration 10 μM; rabbit PRP; read-out: EC50 for Platelet Aggregation Prevention, ADP
recorded metric: pEC50
// pEC50: -log10(molar conc.)

1. O=C1CCc2cc(OCCCCc3nnnn3C3CCCCC3)ccc2N1 [Cilostazol, reference compound]
4.99
2. CCCC1=C(Nc2ccc(C3=NNC(=O)CC3)cc2)CCC1=O
4.64
3. CCCC1=C(Nc2ccc(C3=NNC(=O)CC3C)cc2)CCCC1=O (stereo not shown)
5.35

// below: pEC50 requested for another compound
Given item `CCCC1=C(Nc2ccc(C3=NNC(=O)CC3)cc2)CCCC1=O` , the value recorded as its pEC50 is 4.53

----------
Tested on: platelet aggregation (rabbit platelet rich plasma)
Test: Preventive effect on platelet aggregation in vitro (aggregometer; rabbit platelet rich plasma; ADP or collagen induced)
Type: cell-based, rabbits
Conditions: Oryctolagus cuniculus, Platelet; collagen at final concentration 20 μg/ml; rabbit PRP; read-out: EC50 for Platelet Aggregation Prevention, Collagen
recorded metric: EC50

Worked examples, 3 compounds total:
1. CCCC1=C(Nc2ccc(C3=NNC(=O)CC3)cc2)CCCC1=O
9.3 µM
2. CCCC1=C(Nc2ccc(C3=NNC(=O)CC3)cc2)CCC1=O
12.9 µM
3. O=C1CCc2cc(OCCCCc3nnnn3C3CCCCC3)ccc2N1 [Cilostazol, reference compound]
4.3 µM

// below: EC50 requested for another compound
Given item CCCC1=C(Nc2ccc(C3=NNC(=O)CC3C)cc2)CCCC1=O (stereo not shown) , the value recorded as its EC50 is 3.6 µM
